biological target: T1, recombinant human EGFR extracellular domain with 6xHis (human, UniProt P00533 25-645); experiment: SPR competition, competitor Ab-3
T1 construct: In-house produced; also called 6xHis EGFR ECD; soluble human EGFR ECD; not shown: 6xHis tag
Metric: % inhibition (%)
Give just the numeric value; % need not be written.

// known answers, use as guide
1) antibody 1030 (antibody, human IgG1, kappa, V domains shown, Chimeric IgG1 kappa) VH: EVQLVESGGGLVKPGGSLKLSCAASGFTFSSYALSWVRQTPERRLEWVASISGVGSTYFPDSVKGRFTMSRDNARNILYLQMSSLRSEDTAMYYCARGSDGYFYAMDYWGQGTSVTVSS VL: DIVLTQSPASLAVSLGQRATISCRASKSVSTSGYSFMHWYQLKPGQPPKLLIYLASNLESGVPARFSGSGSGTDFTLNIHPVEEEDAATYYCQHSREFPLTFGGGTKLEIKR = 6
2) antibody 1347 (antibody, human IgG1, kappa, V domains shown, Chimeric IgG1 kappa) VH: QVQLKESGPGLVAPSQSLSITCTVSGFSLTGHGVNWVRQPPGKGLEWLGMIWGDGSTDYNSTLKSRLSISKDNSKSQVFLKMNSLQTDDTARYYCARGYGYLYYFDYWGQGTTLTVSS VL: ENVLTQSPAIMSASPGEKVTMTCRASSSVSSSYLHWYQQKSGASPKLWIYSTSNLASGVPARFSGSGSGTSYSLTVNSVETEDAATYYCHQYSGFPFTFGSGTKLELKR = 11

[Q] // fetch % inhibition given entry antibody 1024 (antibody, human IgG1, kappa, V domains shown, Chimeric IgG1 kappa) VH: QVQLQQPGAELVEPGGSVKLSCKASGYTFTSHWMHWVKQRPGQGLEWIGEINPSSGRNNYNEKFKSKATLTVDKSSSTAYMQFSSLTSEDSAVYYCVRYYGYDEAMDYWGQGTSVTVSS VL: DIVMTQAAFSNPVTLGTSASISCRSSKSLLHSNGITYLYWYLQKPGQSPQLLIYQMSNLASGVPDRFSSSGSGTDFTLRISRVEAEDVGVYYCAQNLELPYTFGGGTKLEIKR
[A] 0
